- target_under_test: HER2 S310F (Homo sapiens, UniProt P04626, S310F)
- Construct: expressed in transfected cells; host or cells: BaF3 (murine pro-B)
- Sequence (P04626 23-1255 S310F): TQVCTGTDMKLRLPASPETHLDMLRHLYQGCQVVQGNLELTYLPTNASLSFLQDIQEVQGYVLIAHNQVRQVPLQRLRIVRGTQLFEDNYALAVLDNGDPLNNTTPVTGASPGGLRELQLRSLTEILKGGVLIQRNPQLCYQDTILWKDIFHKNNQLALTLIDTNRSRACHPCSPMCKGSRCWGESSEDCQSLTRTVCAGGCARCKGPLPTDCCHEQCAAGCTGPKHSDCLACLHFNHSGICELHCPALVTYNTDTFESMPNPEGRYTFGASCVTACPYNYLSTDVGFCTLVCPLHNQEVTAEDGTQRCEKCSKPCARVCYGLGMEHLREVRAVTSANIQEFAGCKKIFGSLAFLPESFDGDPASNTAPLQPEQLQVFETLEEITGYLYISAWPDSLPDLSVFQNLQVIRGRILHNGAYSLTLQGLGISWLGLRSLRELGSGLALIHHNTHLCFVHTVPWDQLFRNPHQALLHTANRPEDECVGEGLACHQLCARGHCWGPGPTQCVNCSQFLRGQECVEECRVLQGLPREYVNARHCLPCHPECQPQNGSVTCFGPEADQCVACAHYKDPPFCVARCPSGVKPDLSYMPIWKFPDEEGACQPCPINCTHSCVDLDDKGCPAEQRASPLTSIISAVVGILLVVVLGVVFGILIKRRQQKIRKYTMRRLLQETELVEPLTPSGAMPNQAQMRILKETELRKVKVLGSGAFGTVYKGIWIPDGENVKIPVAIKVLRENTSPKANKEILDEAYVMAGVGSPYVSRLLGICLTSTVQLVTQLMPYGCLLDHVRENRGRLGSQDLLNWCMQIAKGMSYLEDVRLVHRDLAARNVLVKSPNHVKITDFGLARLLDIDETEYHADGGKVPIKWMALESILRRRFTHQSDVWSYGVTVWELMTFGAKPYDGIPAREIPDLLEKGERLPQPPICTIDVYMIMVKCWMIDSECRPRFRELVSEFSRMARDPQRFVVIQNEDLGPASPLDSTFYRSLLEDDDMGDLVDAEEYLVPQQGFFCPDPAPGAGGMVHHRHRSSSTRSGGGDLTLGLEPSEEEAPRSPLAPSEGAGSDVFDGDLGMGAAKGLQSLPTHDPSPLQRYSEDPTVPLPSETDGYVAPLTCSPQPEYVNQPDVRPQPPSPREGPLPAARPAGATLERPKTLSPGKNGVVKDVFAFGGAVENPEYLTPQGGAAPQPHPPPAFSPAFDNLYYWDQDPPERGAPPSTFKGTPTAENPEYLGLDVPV
- measurement_protocol: BaF3 cell proliferation assay, HER2 S310F (Table B)
- Type: cell-based
- experimental_context: potency code, 3 days, CellTiterGlo, read-out: HER2 S310F (Activity for Inhibiting HER2)
value_kind: IC50

- compound: "C=CC(=O)Nc1cc2c(Nc3ccc(OCc4ccccn4)c(Cl)c3)ncnc2cc1OCCN1CCCC1"
  value_kind: "IC50"
  recorded_measurement: "0.01 to 0.02 µM"
- compound: "C=CC(=O)Nc1cc2c(Nc3ccc(OCc4ccccn4)c(Cl)c3)ncnc2cc1OCCC1COCCN1C (stereo not drawn)"
  value_kind: "IC50"
  recorded_measurement: "0.01 to 0.02 µM"
- compound: "C=CC(=O)Nc1cc2c(Nc3ccc(OCc4ccccn4)cn3)ncnc2cc1OC1CCN(C)C1 (stereo not drawn)"
  value_kind: "IC50"
  recorded_measurement: "0.3 to 0.5 µM"
- compound: "CC#CC(=O)Nc1cc2c(Nc3cc(Cl)c(OCc4cccc(F)c4)cc3F)ncnc2cc1OCCN1CC2CCC(C1)O2"
  value_kind: "IC50"
  recorded_measurement: "0.02 to 0.03 µM"
- compound: "CC#CC(=O)Nc1cc2c(Nc3ccc(Oc4ccccc4)cc3)ncnc2cc1C#C[C@@H]1[C@H]2CN(C)C[C@@H]12"
  value_kind: "IC50"
  recorded_measurement: "0.05 to 0.1 µM"
- compound: "C=CC(=O)Nc1cc2c(Nc3ccc(OCc4cccnn4)c(Cl)c3)ncnc2cc1OCCCN1CCOCC1"
  value_kind: "IC50"
  recorded_measurement: "0.01 to 0.02 µM"
- compound: "C=CC(=O)Nc1cc2c(Nc3ccc(OCc4ccccn4)cc3)ncnc2cc1OCCN1CC2CN(C)CC2C1 (stereo not drawn)"
  value_kind: "IC50"
  recorded_measurement: "0.1 to 0.2 µM"
- compound: "C=CC(=O)Nc1cc2c(Nc3cnc(NCc4ccccn4)c(Cl)c3)ncnc2cc1OCCN1CCOCC1"
  value_kind: "IC50"
  recorded_measurement: "0.2 to 0.3 µM"
- compound: "C=CC(=O)Nc1cc2c(Nc3ccc(OCc4ccccn4)c(Cl)c3)ncnc2cc1N(C)CCN1CCOCC1"
  value_kind: "IC50"
  recorded_measurement: "0.2 to 0.3 µM"
- compound: "C=CC(=O)Nc1cc2c(Nc3ccc(Oc4ccc(C)nc4)c(C)c3)ncnc2cc1OC1CCN(C)C1 (stereo not drawn)"
  value_kind: "IC50"
  recorded_measurement: "0.03 to 0.05 µM"
- compound: "C=CC(=O)Nc1cc2c(Nc3cc(Cl)c(OCc4cccc(F)c4)cc3F)ncnc2cc1OCCN1CC2CCC(C1)O2"
  value_kind: "IC50"
  recorded_measurement: "0.05 to 0.1 µM"
- compound: "CC#CC(=O)Nc1cc2c(Nc3ccc(OCc4ccccn4)c(Cl)c3)ncnc2cc1C#CC1[C@H]2CN(C)C[C@@H]12 (stereo partly drawn)"
  value_kind: "IC50"
  recorded_measurement: "0.01 to 0.02 µM"
- compound: "C=CC(=O)Nc1cc2c(Nc3ccc(OCc4ccnc(C)c4)c(Cl)c3)ncnc2cc1OCCN1CCOCC1"
  value_kind: "IC50"
  recorded_measurement: "0.3 to 0.5 µM"
- compound: "C=CC(=O)Nc1cc2c(Nc3ccc(OCc4cccnn4)c(Cl)c3)ncnc2cc1OCCN1CC(OC)C1"
  value_kind: "IC50"
  recorded_measurement: "0.05 to 0.1 µM"
- compound: "C=CC(=O)Nc1cc2c(Nc3ccc(Oc4ccc(C)nc4)c(C)c3)ncnc2cc1C#CC(C)(C)N(C)C"
  value_kind: "IC50"
  recorded_measurement: "0.05 to 0.1 µM"
